The following binders are listed with their measured Residual activity [%] values.
- assayed.system: T1, VLP2 (virus-like particles of AAV2) (AAV2, UniProt P03135 1-735; P03135 1-598; P03135 1-533)
- T1 construct: Empty AAV2 capsid; background says about 60 protein molecules, VP1:VP2:VP3 = 1:1:10; Immobilised on the ELISA plate
- T1 sequence (P03135 whole entry, chain 1 of 3): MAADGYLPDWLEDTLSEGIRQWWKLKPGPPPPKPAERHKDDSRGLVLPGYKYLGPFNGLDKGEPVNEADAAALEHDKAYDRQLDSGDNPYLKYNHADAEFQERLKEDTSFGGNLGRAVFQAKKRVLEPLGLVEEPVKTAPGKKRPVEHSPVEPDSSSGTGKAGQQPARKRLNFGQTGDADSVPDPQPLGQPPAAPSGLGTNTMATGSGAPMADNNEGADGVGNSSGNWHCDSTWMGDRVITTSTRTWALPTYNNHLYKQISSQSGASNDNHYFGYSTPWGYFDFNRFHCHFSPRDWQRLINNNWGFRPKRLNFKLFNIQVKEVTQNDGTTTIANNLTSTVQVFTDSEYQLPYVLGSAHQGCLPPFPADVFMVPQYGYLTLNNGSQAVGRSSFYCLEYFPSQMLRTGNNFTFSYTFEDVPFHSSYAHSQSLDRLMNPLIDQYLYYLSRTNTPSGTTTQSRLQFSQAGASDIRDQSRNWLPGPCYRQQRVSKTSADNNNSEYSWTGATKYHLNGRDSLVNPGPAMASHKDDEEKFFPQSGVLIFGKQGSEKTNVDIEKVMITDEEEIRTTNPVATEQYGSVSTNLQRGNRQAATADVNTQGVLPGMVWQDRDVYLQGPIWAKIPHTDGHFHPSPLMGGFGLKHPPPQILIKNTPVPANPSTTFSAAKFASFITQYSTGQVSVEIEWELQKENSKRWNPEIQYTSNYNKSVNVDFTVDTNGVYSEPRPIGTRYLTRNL
- T1 sequence (P03135 139-735, tags left off, chain 2 of 3): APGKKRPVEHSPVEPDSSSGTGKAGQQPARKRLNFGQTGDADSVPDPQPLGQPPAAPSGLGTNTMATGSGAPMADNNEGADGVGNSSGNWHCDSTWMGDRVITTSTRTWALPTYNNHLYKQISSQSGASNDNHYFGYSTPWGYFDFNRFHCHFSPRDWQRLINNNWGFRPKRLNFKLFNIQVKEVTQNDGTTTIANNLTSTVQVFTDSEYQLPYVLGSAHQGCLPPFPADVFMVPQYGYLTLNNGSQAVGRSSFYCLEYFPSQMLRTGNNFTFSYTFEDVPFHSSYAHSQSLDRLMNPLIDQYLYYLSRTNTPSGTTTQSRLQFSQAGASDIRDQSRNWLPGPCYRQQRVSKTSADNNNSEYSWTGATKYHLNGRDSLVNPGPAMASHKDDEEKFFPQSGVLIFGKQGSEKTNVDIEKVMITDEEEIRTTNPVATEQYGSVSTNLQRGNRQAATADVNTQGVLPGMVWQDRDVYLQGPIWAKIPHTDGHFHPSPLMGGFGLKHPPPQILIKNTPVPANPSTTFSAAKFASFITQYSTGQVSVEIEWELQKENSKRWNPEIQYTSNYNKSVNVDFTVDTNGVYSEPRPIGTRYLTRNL
- T1 sequence (P03135 203-735, chain 3 of 3): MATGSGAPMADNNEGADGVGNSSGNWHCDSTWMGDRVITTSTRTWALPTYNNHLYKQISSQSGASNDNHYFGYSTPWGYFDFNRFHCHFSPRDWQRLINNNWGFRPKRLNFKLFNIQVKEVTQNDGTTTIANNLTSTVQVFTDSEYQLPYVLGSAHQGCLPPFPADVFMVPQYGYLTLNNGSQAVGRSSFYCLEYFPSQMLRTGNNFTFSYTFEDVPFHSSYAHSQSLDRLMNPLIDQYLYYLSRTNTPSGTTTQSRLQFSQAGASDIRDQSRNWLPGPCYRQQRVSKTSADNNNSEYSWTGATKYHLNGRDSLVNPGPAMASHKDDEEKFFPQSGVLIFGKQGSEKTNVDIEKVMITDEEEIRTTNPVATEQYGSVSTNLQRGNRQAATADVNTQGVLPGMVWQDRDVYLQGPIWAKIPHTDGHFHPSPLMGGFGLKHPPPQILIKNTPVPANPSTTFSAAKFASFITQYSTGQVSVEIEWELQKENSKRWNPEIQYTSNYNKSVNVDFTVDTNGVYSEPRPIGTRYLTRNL
- measurement.protocol: ELISA on VLP2; binding after pH 3.0 51.1°C 15 min / untreated;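 further: binding of the heat-treated AAV-binding protein to VLP2, expressed as a percentage of the binding of the same protein without heating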

binder | Residual activity [%]
AAV-binding protein No. 84 (AVR2 + Pro336Gln, Gln386Arg, Asn487Asp) (receptor) MGSAGESVQITLPKNEVQLNAYVLQEQPKGETCTYDWQLITHPRDYSGEMEGKHSQILKLSKLTPGLYEFKVIVEGRNAHSEGYVNVTVKPEPRKNRPPIAIVSPQFQEISLPTTSTVIDGSQSTDDDKIVQYHWEELKGPLREEKISEDTAILKLSKLVPGNYTFSLTVVDSDGATDSTTANLTVNKAVDHHHHHH | 48.4%
AAV-binding protein No. 81 (AVR2 + Phe379Ser, Ser476Gly) (receptor) MGSAGESVQITLPKNEVQLNAYVLQEPPKGETCTYDWQLITHPRDYSGEMEGKHSQILKLSKLTPGLYESKVIVEGQNAHSEGYVNVTVKPEPRKNRPPIAIVSPQFQEISLPTTSTVIDGSQSTDDDKIVQYHWEELKGPLREEKISEDTAILKLSKLVPGNYTFGLTVVDSDGATNSTTANLTVNKAVDHHHHHH | 66.3%
AAV-binding protein No. 59 (AVR2 + Ile319Asn) (receptor) MGSAGESVQNTLPKNEVQLNAYVLQEPPKGETCTYDWQLITHPRDYSGEMEGKHSQILKLSKLTPGLYEFKVIVEGQNAHSEGYVNVTVKPEPRKNRPPIAIVSPQFQEISLPTTSTVIDGSQSTDDDKIVQYHWEELKGPLREEKISEDTAILKLSKLVPGNYTFSLTVVDSDGATNSTTANLTVNKAVDHHHHHH | 26.1%
AAV-binding protein No. 65 (AVR2 + Val332Glu) (receptor) MGSAGESVQITLPKNEVQLNAYELQEPPKGETCTYDWQLITHPRDYSGEMEGKHSQILKLSKLTPGLYEFKVIVEGQNAHSEGYVNVTVKPEPRKNRPPIAIVSPQFQEISLPTTSTVIDGSQSTDDDKIVQYHWEELKGPLREEKISEDTAILKLSKLVPGNYTFSLTVVDSDGATNSTTANLTVNKAVDHHHHHH | 29.4%
AAV-binding protein No. 58 (AVR2 + Ile319Phe) (receptor) MGSAGESVQFTLPKNEVQLNAYVLQEPPKGETCTYDWQLITHPRDYSGEMEGKHSQILKLSKLTPGLYEFKVIVEGQNAHSEGYVNVTVKPEPRKNRPPIAIVSPQFQEISLPTTSTVIDGSQSTDDDKIVQYHWEELKGPLREEKISEDTAILKLSKLVPGNYTFSLTVVDSDGATNSTTANLTVNKAVDHHHHHH | 73.9%
AAV-binding protein No. 69 (AVR2 + Thr350Ser) (receptor) MGSAGESVQITLPKNEVQLNAYVLQEPPKGETCTYDWQLISHPRDYSGEMEGKHSQILKLSKLTPGLYEFKVIVEGQNAHSEGYVNVTVKPEPRKNRPPIAIVSPQFQEISLPTTSTVIDGSQSTDDDKIVQYHWEELKGPLREEKISEDTAILKLSKLVPGNYTFSLTVVDSDGATNSTTANLTVNKAVDHHHHHH | 49.9%
